Target: Histone-lysine N-methyltransferase EHMT2 (Homo sapiens) (UniProt Q96KQ7)
Sequence (Q96KQ7 913-1193 limits assumed): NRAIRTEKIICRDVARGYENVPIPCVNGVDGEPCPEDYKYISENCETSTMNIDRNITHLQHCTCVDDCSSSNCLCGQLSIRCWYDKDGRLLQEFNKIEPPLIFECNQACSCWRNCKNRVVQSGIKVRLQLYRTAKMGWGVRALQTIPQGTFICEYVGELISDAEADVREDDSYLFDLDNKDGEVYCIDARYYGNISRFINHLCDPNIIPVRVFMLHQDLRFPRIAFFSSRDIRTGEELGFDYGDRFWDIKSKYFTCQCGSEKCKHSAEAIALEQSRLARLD
Assay: qHTS Assay for Inhibitors of Histone Lysine Methyltransferase G9a; also: nearly all actives have a fitted effect of over 75% in size
Conditions: G9a H3K9 monomethylation, AlphaScreen, 2 h; series mostly up to 59 µM
Description: Methylated lysines, on the N-terminal tails of histone proteins serve as epigenetic markers to recruit factors that can then modify local chromatin structure to lead to functional consequences. […] Methylation of biotinylated-histone peptide is measured through specific antibody-based detection, in conjunction with streptavidin-coated donor and anti-IgG antibody-coated acceptor beads. […]
Screen size: about 350,000 compounds; about 31,000 (8.9%) were called active. Not shown: some 15% with an inconclusive outcome. Calls follow the shape of the dose curve; as a rule, active = well fitted inhibition curve with a large enough effect; inconclusive = small, poorly fitted or top-dose-only effect; inactive = no such curve, though single readings can be large or run the other way. For the sample, actives were picked, then their nearest neighbours and some compounds at random.
Permitted responses: T for active, F for inactive

Hey, what did the test say about `O=C(NCCCn1ccnc1)C(=O)c1cn(CC(=O)N2CCCCCC2)c2ccccc12` ?
F

Hey, what did the test say about O=C(CN1C(=O)C2C3C=CC(C3)C2C1=O)Nc1nc(-c2ccccn2)cs1 (stereo unspecified) ?
T

Hey, what did the test say about `Cc1cccc(Nc2cc(C)nc(-n3nc(C)cc3C)n2)c1` ?
F

Hey, what did the test say about `Cc1ccc(C)c(NC(=O)CN(C)C(=O)c2ccc3ncsc3c2)c1` ?
F

Hey, what did the test say about `NS(=O)(=O)c1ccc(CCNC(=O)CN2C(=O)c3ccccc3S2(=O)=O)cc1` ?
F

Hey, what did the test say about `Cc1ccccc1-c1nc2cc(NC(=O)c3cccc(OCCC(C)C)c3)ccc2o1` ?
F

====

target: Histone-lysine N-methyltransferase EHMT2 (Homo sapiens); test: qHTS Assay for Inhibitors of Histone Lysine Methyltransferase G9a; conditions: G9a H3K9 monomethylation, AlphaScreen, 2 h; series mostly up to 59 µM; also: nearly all actives have a fitted effect of over 75% in size; also: potency is read from the fitted curve at half-maximal effect
About 31,000 (8.9%) of roughly 350,000 compounds were called active. Inconclusive results (about 15%) are left out. The full list was thinned out, with actives kept by preference.
measured.attribute: Potency

Some compounds with recorded Potency:
                                   compound  measured_attribute       test_result
0    O=C(NCCNc1ccccc1[N+](=O)[O-])c1ccccc1F             Potency          inactive
1  COc1ccc(-c2nc3scc(CCNS(=O)(=O)c4cc(F)ccc4OC)n3n2)cc1OC             Potency          inactive
2      CCS(=O)(=O)Nc1cc(C(=O)OC)ccc1C(=O)OC             Potency  2.82 µM (active)
3         O=C1Nc2ccccc2/C1=C/c1ccnc2ccccc12             Potency          inactive
4  CC1CCCCC1NC(=O)CSc1nnc(N)s1 (centres undefined)             Potency          inactive
5                     Cc1nnc(NCCO)c2ccccc12             Potency          inactive
6  CCOC(=O)c1ccc(-c2ccc(/C=C(\C#N)C(=O)Nc3ccc(C)cc3)o2)cc1             Potency          inactive
7  COc1ccc(C(=O)Nc2ccccc2C(=O)NCc2ccco2)cc1             Potency          inactive

Now take the following compound into account.
In plain terms, `CCOc1cccc2cc(C(=O)OCC(=O)Nc3c(C)cccc3CC)c(=O)oc12` has a documented Potency of 44.7 µM (active)
